Molecular target: T1, hCMV gH, gL, UL128, UL130 and UL131A co-expressed in HEK293T cells (human cytomegalovirus, UniProt P12824 24-743; P16832 31-278; P16837 1-171; P16772 1-214)
T1 construct: whole, on cells; also called gH + gL + UL128 + UL130 + UL131A; gH/gL/UL128-130 complex
Assay: cell cross-competition, 20x excess; competitor 4I22-biotin
Observable: Inhibition of binding (%)
Field format: number, assumed %, no unit text.

Below are worked cases with known answers.
| Binder | Observed Measurement |
| --- | --- |
| 15D8 (antibody, V domains shown, human IgG mAb; also called 15D8-biotin) VH: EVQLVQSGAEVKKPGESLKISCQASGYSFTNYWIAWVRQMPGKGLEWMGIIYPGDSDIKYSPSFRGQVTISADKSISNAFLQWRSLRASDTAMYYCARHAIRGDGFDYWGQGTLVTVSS VL: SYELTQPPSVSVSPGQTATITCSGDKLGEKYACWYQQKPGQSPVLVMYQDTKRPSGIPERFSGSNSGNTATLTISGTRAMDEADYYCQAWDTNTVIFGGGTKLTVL | 0 |
| 4N10 (antibody, V domains shown, human IgG mAb; also called 4N10-biotin) VH: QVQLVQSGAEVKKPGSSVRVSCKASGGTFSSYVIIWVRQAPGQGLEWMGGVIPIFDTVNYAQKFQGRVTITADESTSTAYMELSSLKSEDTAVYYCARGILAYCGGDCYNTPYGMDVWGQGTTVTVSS VL: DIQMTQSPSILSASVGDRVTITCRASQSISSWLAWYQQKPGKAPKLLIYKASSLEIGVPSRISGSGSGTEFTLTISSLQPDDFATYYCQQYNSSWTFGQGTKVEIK | 0 |

Write down Inhibition of binding (%) measured for item 2C12 (antibody, V domains shown, human IgG mAb; also called 2C12-biotin) VH: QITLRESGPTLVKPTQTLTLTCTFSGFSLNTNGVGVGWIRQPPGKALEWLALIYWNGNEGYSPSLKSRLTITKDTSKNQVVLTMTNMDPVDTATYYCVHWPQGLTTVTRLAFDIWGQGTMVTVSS VL: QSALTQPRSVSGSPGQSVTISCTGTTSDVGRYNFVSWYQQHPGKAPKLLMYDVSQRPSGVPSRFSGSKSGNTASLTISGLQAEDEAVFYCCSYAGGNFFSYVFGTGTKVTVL 0
